Please respond with reported remaining activity at 20 µM for every item in the list.
- Experimental System: ALDH1A2 (Homo sapiens)
- Sequence (O94788 whole entry): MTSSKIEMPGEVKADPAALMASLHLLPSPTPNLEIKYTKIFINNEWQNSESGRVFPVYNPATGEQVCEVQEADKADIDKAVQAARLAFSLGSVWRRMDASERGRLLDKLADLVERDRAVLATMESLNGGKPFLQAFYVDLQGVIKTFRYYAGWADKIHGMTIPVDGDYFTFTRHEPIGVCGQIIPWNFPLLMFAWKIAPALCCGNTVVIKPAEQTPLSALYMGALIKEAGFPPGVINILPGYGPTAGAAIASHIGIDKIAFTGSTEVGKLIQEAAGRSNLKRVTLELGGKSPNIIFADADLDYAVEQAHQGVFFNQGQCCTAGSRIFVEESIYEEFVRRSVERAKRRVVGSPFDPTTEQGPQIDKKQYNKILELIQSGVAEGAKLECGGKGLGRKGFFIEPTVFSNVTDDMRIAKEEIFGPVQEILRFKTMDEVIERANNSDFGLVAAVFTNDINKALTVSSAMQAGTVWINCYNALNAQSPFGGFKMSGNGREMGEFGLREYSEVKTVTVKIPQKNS
- Protocol Notes: Inhibition of ALDH isoenzymes (NAD(P)H formation at 340 nm, purified recombinant enzyme)
- Assay type: biochemical
- Condition Label: compound at 20 μM; read-out: ALDH1A2 % Control at 20 μM
One number for each entry, in %.

Provide reported remaining activity at 20 µM for each item, in the same order as listed.
1. C[C@H](Sc1nc2c(cnn2C)c(=O)n1-c1ccccc1)c1ccccc1 [Example 69]
2. Cn1ncc2c(=O)n(C3CCCCC3)c(SCc3cccc(F)c3)nc21 [Example 44]
3. O=c1c2cnn(C3COC3)c2nc(SCc2cccc(F)c2)n1-c1ccccc1 [Example 18]
4. Cc1ccccc1-n1c(NCc2cccc(F)c2)nc2[nH]ncc2c1=O [Example 22]
5. CC(Sc1nc2c(cnn2C)c(=O)n1-c1ccccc1)c1ccccn1 (stereo not shown) [Example 79]

1. 19
2. 36
3. 7
4. 96
5. 1

Provide reported remaining activity at 20 µM for each item, in the same order as listed.
1. Cn1ncc2c(=O)n(-c3ccccc3)c(SC3CCCC3=O)nc21 (stereo not shown) [Example 75]
2. Cn1ncc2c(=O)n(-c3ccccc3)c(SCc3cccc(C#N)c3)nc21 [Example 53]
3. CC(Sc1nc2c(cnn2C)c(=O)n1-c1ccccc1)c1cccnc1 (stereo not shown) [Example 80]
4. Cc1ccccc1-n1c(NCCc2cccc(F)c2)nc2c(cnn2C)c1=O [Example 23]
5. CC(Sc1nc2c(cnn2C2COC2)c(=O)n1-c1ccccc1)c1ccccc1 (stereo not shown) [Example 73]
6. Cn1ncc2c(=O)n(C3CCC3)c(SCc3cccc(F)c3)nc21 [Example 46]
7. CC(Sc1nc2c(cnn2C)c(=O)n1-c1ccccc1)c1cccc(F)c1 (stereo not shown) [Example 71]
8. CCC(Sc1nc2c(cnn2C)c(=O)n1-c1ccccc1)c1ccccc1 (stereo not shown) [Example 70]

1. 46
2. 30
3. 7
4. 68
5. 0
6. 14
7. -8
8. -14

Provide reported remaining activity at 20 µM for each item, in the same order as listed.
1. Cn1ncc2c(=O)n(C3CCCC3)c(SCc3cccc(F)c3)nc21 [Example 45]
2. Cn1ncc2c(=O)n(-c3ccccc3O)c(SCc3cccc(F)c3)nc21 [Example 33]

[37, 92]

Provide reported remaining activity at 20 µM for each item, in the same order as listed.
1. CC1(Cn2cc3c(=O)n(-c4ccccc4)c(SCc4cccc(F)c4)nc3n2)COC1 [Example 67]
2. Cn1ncc2c(=O)n(-c3ccccc3)c(SC(C)(C)c3ccccc3)nc21 [Example 77]
3. CC(Sc1nc2c(cnn2C)c(=O)n1-c1ccccc1)c1cccc(O)c1 (stereo not shown) [Example 78]
4. Cn1ncc2c(=O)n(-c3ccccc3)c(SC3CCCCC3=O)nc21 (stereo not shown) [Example 76]

21
23
0
25

###

- System: OVSAHO
- Protocol Notes: OVSAHO Cell Viability
- Assay type: cell-based
- Condition Label: 50 μM, CD133+ cells
Use 80 % ctrl as the dividing line for OVSAHO Cell Viability (50 μM) % CD133 + % ctrl, with the line itself on the MET side and lower values as NOT MET.

Here are 4 compounds together with their reported answers.
Smiles String | Experimental System | Class Name
CCn1cc2c(=O)n(-c3ccccc3)c(SCc3cccc(F)c3)nc2n1 | OVSAHO | MET
Cn1ncc2c(=O)n(Cc3ccccc3)c(SCc3cccc(F)c3)nc21 | OVSAHO | NOT MET
Cn1cc2c(=O)n(-c3ccccc3)c(SCc3cccc(F)c3)nc2n1 | OVSAHO | MET
Cn1ncc2c(=O)n(-c3ccncc3)c(SCc3cccc(F)c3)nc21 | OVSAHO | NOT MET

Given CC(C)CCSc1nc2c(cnn2C)c(=O)n1-c1ccccc1 , state whether its OVSAHO Cell Viability (50 μM) % CD133 + % ctrl is at least 80 % ctrl.
NOT MET

And CCn1ncc2c(=O)n(-c3ccccc3)c(SCc3cccc(F)c3)nc21 ?
NOT MET

And Cn1ncc2c(=O)n(-c3ccccc3O)c(SCc3cccc(F)c3)nc21 ?
MET

###

- Experimental System: ALDH1A1 (Homo sapiens)
- Protocol Notes: Inhibition of ALDH isoenzymes (NAD(P)H formation at 340 nm, purified recombinant enzyme)
- Type: biochemical
- Condition Label: compound at 20 μM; read-out: ALDH1A1 % Control at 20 μM
Please respond with reported remaining activity at 20 µM for every item in the list.
Give bare numbers, in %.

Compound | Quantity Unit | Data Value
Cn1ncc2c(=O)n(-c3ccccc3)c(COc3cccc(F)c3)nc21 | % | 24
Cn1ncc2c(=O)n(-c3ccccc3)c(COCc3cccc(F)c3)nc21 | % | 15
Cc1ccccc1-n1c(NCCc2cccc(F)c2)nc2c(cnn2C)c1=O | % | 66
CC1(Cn2cc3c(=O)n(-c4ccccc4)c(SCc4cccc(F)c4)nc3n2)COC1 | % | 7
Cc1ccccc1-n1c(NCc2cccc(F)c2)nc2[nH]ncc2c1=O | % | 61
C[C@H](Sc1nc2c(cnn2C)c(=O)n1-c1ccccc1)c1ccccc1 | % | 18
Cn1ncc2c(=O)n(-c3ccccc3)c(SC3CCCC3=O)nc21 (stereo not drawn) | % | 23
Cn1ncc2c(=O)n(C3CCCC3)c(SCc3cccc(F)c3)nc21 | % | 46

Turning to the following compound.
Reported remaining activity at 20 µM for Cn1ncc2c(=O)n(-c3ccccc3)c(CNCc3cccc(F)c3)nc21 : what is it?
28

###

- Tested on: OVSAHO
- Protocol Notes: OVSAHO Cell Viability
- Type: cell-based
- Condition Label: 50 μM, CD133+ cells
Recorded Metric: OVSAHO Cell Viability (50 μM) % CD133 + % ctrl (% ctrl)
One number for each entry, in % ctrl.

Smiles String | Data Value
O=c1c2cn[nH]c2nc(SCc2cccc(F)c2)n1-c1ccccc1 | 58

Provide reported OVSAHO Cell Viability (50 μM) % CD133 + % ctrl for each item, in the same order as listed.
1. Cc1ccccc1-n1c(SCc2cccc(F)c2)nc2c(cnn2CC2COC2)c1=O
2. Cc1ccccc1-n1c(SCc2cccc(F)c2)nc2c(cnn2C2COC2)c1=O

1: 69; 2: 50

Provide reported OVSAHO Cell Viability (50 μM) % CD133 + % ctrl for each item, in the same order as listed.
1. Cc1ccccc1-n1c(OCc2cc3ccccc3s2)nc2c(cnn2C)c1=O
2. Cn1c(SCc2cccc(F)c2)nc2c(cnn2C)c1=O

50
88

###

- Experimental System: ALDH1A1 (Homo sapiens)
- Sequence (P00352 1-501): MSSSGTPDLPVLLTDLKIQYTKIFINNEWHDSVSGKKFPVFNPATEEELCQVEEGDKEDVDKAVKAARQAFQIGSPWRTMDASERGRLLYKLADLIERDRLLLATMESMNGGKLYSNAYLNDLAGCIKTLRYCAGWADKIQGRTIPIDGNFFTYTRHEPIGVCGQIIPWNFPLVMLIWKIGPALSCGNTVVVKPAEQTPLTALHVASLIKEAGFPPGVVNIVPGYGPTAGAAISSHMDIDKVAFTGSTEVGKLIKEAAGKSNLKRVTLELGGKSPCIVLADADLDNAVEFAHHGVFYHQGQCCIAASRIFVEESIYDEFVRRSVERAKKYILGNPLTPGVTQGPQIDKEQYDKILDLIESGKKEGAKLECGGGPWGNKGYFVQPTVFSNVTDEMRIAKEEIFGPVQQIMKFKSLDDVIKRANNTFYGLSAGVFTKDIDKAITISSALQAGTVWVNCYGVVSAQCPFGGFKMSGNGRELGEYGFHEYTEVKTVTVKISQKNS
- Protocol Notes: Inhibition of ALDH isoenzymes (NAD(P)H formation at 340 nm, purified recombinant enzyme)
- Format: biochemical
- Condition Label: compound at 20 μM; read-out: ALDH1A1 % Control at 20 μM
Recorded Metric: remaining activity at 20 µM (%)
Give bare numbers, in %.

Compound | Experimental System | remaining activity at 20 µM [%]
Cn1ncc2c(=O)n(-c3ccccc3)c(/C=C/c3cccc(F)c3)nc21 | ALDH1A1 (Homo sapiens) | 28
Cn1ncc2c(=O)n(C3CCC3)c(SCc3cccc(F)c3)nc21 | ALDH1A1 (Homo sapiens) | 28
Cn1ncc2c(=O)n(-c3ccccc3)c(SC3CCCCC3)nc21 | ALDH1A1 (Homo sapiens) | 26
CC(Sc1nc2c(cnn2C)c(=O)n1-c1ccccc1)c1cccnc1 (stereo not drawn) | ALDH1A1 (Homo sapiens) | 6
O=c1c2cnn(C3COC3)c2nc(SCc2cccc(F)c2)n1-c1ccccc1 | ALDH1A1 (Homo sapiens) | 2
Cn1ncc2c(=O)n(-c3ccccc3)c(SC(C)(C)c3ccccc3)nc21 | ALDH1A1 (Homo sapiens) | 22
Cn1ncc2c(=O)n(-c3ccccc3)c(SC3CCCCC3=O)nc21 (stereo not drawn) | ALDH1A1 (Homo sapiens) | 16
Cn1ncc2c(=O)n(-c3ccccc3)c(CSc3cccc(F)c3)nc21 | ALDH1A1 (Homo sapiens) | 25

Provide reported remaining activity at 20 µM for each item, in the same order as listed.
1. CC(Sc1nc2c(cnn2C)c(=O)n1-c1ccccc1)c1ccccn1 (stereo not drawn)
2. Cn1ncc2c(=O)n(C3CCCCC3)c(SCc3cccc(F)c3)nc21
3. Cn1ncc2c(=O)n(-c3ccccc3)c(CCc3cccc(F)c3)nc21
4. CC(Sc1nc2nn(C3COC3)cc2c(=O)n1-c1ccccc1)c1ccccc1 (stereo not drawn)
5. O=c1c2cn(CC3CNC3)nc2nc(SCc2cccc(F)c2)n1-c1ccccc1
6. Cn1ncc2c(=O)n(-c3ccccc3)c(SCc3cccc(C#N)c3)nc21
7. CC(Sc1nc2c(cnn2C2COC2)c(=O)n1-c1ccccc1)c1ccccc1 (stereo not drawn)

1. 9
2. 37
3. 24
4. 3
5. 14
6. 24
7. 3

Provide reported remaining activity at 20 µM for each item, in the same order as listed.
1. CC(Sc1nc2c(cnn2C)c(=O)n1-c1ccccc1)c1cccc(F)c1 (stereo not drawn)
2. CCC(Sc1nc2c(cnn2C)c(=O)n1-c1ccccc1)c1ccccc1 (stereo not drawn)
3. CC(Sc1nc2c(cnn2C)c(=O)n1-c1ccccc1)c1cccc(O)c1 (stereo not drawn)

-4
-5
4
